Kindly state inhibition at 10 µM for each of the entries shown.
System: Bel-7402
Assay: cells
Conditions: Homo sapiens, Bel-7402, 72 h, read-out: INH
Put down the number, then write its unit next to it.

Consider the molecule `C[C@H](Nc1ncccc1C#N)c1nn(-c2cccnc2)c2cc(F)ccc12` and give its measured inhibition at 10 µM.
11%

Consider the molecule `C[C@H](Nc1nc(N)nc2[nH]cnc12)c1nn(-c2cccnc2)c2cc(F)ccc12` and give its measured inhibition at 10 µM.
-5%

Consider the molecule `C[C@H](Nc1ncnc2[nH]cnc12)c1nn(-c2cccc(F)c2)c2cc(F)ccc12` and give its measured inhibition at 10 µM.
-17%

Consider the molecule `C[C@H](Nc1ncnc2[nH]cnc12)c1nn(-c2cccnc2)c2cc(Cl)ccc12` and give its measured inhibition at 10 µM.
17%

Consider the molecule `C[C@H](Nc1ncnc2[nH]cnc12)c1nn(-c2cccc(S(C)(=O)=O)c2)c2cc(F)ccc12` and give its measured inhibition at 10 µM.
-16%

Consider the molecule `C[C@H](Nc1nc(N)nc(N)c1C#N)c1nn(-c2ccncc2)c2cc(F)ccc12` and give its measured inhibition at 10 µM.
43%

Consider the molecule `C[C@H](Nc1nc(N)nc(N)c1C#N)c1nn(-c2cccnc2)c2ccccc12` and give its measured inhibition at 10 µM.
12%

Consider the molecule `CC(C)[C@H](Nc1ncnc2[nH]cnc12)c1nn(-c2cccnc2)c2cc(F)ccc12` and give its measured inhibition at 10 µM.
5%

Consider the molecule `C[C@H](Nc1ncnc2[nH]cnc12)c1nn(-c2cccnc2)c2cc(F)ccc12` and give its measured inhibition at 10 µM.
8%

Consider the molecule `C[C@H](Nc1nc(N)nc(N)c1C#N)c1nn(-c2cccnc2)c2cc(C(F)(F)F)ccc12` and give its measured inhibition at 10 µM.
60%

Consider the molecule `CC[C@H](Nc1ncnc2[nH]cnc12)c1nn(-c2cccnc2)c2cc(F)ccc12` and give its measured inhibition at 10 µM.
12%

Consider the molecule CC(Nc1ncnc2[nH]cnc12)c1nn(-c2cccnc2)c2ccccc12 (racemic) and give its measured inhibition at 10 µM.
4%

Consider the molecule `C[C@H](Nc1ncnc2[nH]cnc12)c1nn(-c2cc(F)cc(F)c2)c2cc(F)ccc12` and give its measured inhibition at 10 µM.
-8%
